biological target: Serine/threonine-protein kinase Nek6 (Homo sapiens, UniProt Q9HC98)
Sequence (Q9HC98 whole entry): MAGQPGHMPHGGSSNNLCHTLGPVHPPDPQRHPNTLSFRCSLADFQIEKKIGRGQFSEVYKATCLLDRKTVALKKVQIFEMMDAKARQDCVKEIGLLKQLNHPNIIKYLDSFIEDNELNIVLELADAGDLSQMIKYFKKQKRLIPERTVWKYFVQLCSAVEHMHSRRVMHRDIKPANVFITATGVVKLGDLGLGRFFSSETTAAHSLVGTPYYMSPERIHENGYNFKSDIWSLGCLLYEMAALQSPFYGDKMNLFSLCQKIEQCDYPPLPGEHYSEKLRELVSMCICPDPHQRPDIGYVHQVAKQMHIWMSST
experimental endpoint: IC50

The recorded IC50 for N#CCNC(=O)c1ccc(-c2ccnc(Nc3ccc(N4CCOCC4)cc3)n2)cc1 [MOMELOTINIB] is > 1 µM
